Entry source: paper PMC3817407

# Tested System: T1, ECF02_915
# T1 chain: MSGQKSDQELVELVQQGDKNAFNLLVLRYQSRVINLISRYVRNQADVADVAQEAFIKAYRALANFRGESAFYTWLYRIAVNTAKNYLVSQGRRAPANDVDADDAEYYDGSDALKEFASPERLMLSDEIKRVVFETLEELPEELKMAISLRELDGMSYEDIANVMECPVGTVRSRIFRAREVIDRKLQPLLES

>  <Binder>
AS20_992 (protein) MTPERFVHLADAYGADLQRWPSAERAAAQALLDCGDAQAVAALRQAHWLDSQLDRYQVPAPSPALAQRIIAAAQQPGAPFWSRYAGWLASLGWVGVGLTGVAAGMLAVALSLPLSTSAEALPSVFDQSDAEFVLSINAEEAEQ

>  <fold repression>
1.93

$$$$
>  <Binder>
AS37_2513 (protein) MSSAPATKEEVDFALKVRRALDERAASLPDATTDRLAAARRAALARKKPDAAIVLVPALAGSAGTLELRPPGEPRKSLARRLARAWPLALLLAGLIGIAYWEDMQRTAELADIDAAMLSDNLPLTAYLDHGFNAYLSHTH

>  <fold repression>
2.67

$$$$
>  <Binder>
AS02_915 (protein) MEKTGQEWVSASVDGETDRQTLAELAADTDSHAKWQRYHLMGDAMRDELPQAMPLDLSARIAAALEDEPTILAPKVEREATQAPSRAVVVPFMRQLGQYGIAAAVALMAVVGVQNYQSTQDDAPLPVLNTRPLVGTATPVSLQTGPVANQNQGNANDQLLEQRRRINAYLQDHMLQQRLNTGAVVDDNSEVTPIPVNR

>  <fold repression>
29.2

$$$$
